Source of measurements: PubChem BioAssay AID1963424

# Tested on: 327498-153-R-J2-PDC complex spheroid growth, % test/control
# assay_remarks: Anticancer human tumor 327498-153-R-J2-PDC patient-derived uterine carcinosarcoma cell line growth inhibition [Asc]
# stated_conditions: second compound 0.316 µM; first compound 0.03 µM; hits give low values
reported_metric: viability, T/C (%)
// return numeric value only (unit: %, not printed)

Fill in reported viability, T/C for this entry: NC(=O)C(=Cn1cnc(-c2cc(C(F)(F)F)cc(C(F)(F)F)c2)n1)c1cncnc1 + Cc1c(S(C)(=O)=O)c(-c2cc(F)cc(N3CCN(c4ccc(NS(=O)(=O)c5ccc(NC(CCN6CCC(C(=O)OCCCP(=O)(O)O)CC6)CSc6ccccc6)c(S(=O)(=O)C(F)(F)F)c5)cc4)CC3)c2)c(-c2ccc(Cl)cc2)n1C(C)C 64.3

Fill in reported viability, T/C for this entry: Cc1nc(N2CCC3(CC2)COC(C)C3N)c(CO)nc1Sc1ccnc(N)c1Cl (centres undefined) + CNC(C)C(=O)NC1CN(S(=O)(=O)c2cccc(S(=O)(=O)N3CCC4CCC(C(=O)NC(c5ccccc5)c5ccccc5)N4C(=O)C(NC(=O)C(C)NC)C3)c2)CCC2CCC(C(=O)NC(c3ccccc3)c3ccccc3)N2C1=O 93.5

Fill in reported viability, T/C for this entry: CCN1C(C(=O)NC23CCC(C(=O)O)(CC2)CC3)C(c2cccc(Cl)c2F)C2(C(=O)Nc3cc(Cl)ccc32)C12CCCCC2 (centres undefined) + CNC(C)C(=O)NC1CN(S(=O)(=O)c2cccc(S(=O)(=O)N3CCC4CCC(C(=O)NC(c5ccccc5)c5ccccc5)N4C(=O)C(NC(=O)C(C)NC)C3)c2)CCC2CCC(C(=O)NC(c3ccccc3)c3ccccc3)N2C1=O 89.7

Fill in reported viability, T/C for this entry: NC(=O)C(=Cn1cnc(-c2cc(C(F)(F)F)cc(C(F)(F)F)c2)n1)c1cncnc1 + CNC(C)C(=O)NC1CN(S(=O)(=O)c2cccc(S(=O)(=O)N3CCC4CCC(C(=O)NC(c5ccccc5)c5ccccc5)N4C(=O)C(NC(=O)C(C)NC)C3)c2)CCC2CCC(C(=O)NC(c3ccccc3)c3ccccc3)N2C1=O 65

---

# Tested on: 327498-153-R-J2-PDC complex spheroid growth, % test/control
# assay_remarks: Anticancer human tumor 327498-153-R-J2-PDC cell line growth inhibition [Asc];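 note: spheroids exposed to compound for 7 days after 3 days of growth; 100% = DMSO vehicle control wells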
# stated_conditions: second compound 0.316 µM; first compound 0.00316 µM; hits give low values
reported_metric: viability, T/C (%)
// return numeric value only (unit: %, not printed)

O=C(c1ccc(F)c(F)c1Nc1ccc(I)cc1F)N1CC(O)([C@@H]2CCCCN2)C1 + Cc1c(S(C)(=O)=O)c(-c2cc(F)cc(N3CCN(c4ccc(NS(=O)(=O)c5ccc(NC(CCN6CCC(C(=O)OCCCP(=O)(O)O)CC6)CSc6ccccc6)c(S(=O)(=O)C(F)(F)F)c5)cc4)CC3)c2)c(-c2ccc(Cl)cc2)n1C(C)C | 91.5

Fill in reported viability, T/C for this entry: NC1CCC(NC2CC2c2ccccc2)CC1 (centres undefined) + Cc1c(S(C)(=O)=O)c(-c2cc(F)cc(N3CCN(c4ccc(NS(=O)(=O)c5ccc(NC(CCN6CCC(C(=O)OCCCP(=O)(O)O)CC6)CSc6ccccc6)c(S(=O)(=O)C(F)(F)F)c5)cc4)CC3)c2)c(-c2ccc(Cl)cc2)n1C(C)C 95

Fill in reported viability, T/C for this entry: COc1c(OCCCN2CCOCC2)ccc2c3n(c(=NC(=O)c4cnc(N)nc4)nc12)CCN3 + CNC(C)C(=O)NC1CN(S(=O)(=O)c2cccc(S(=O)(=O)N3CCC4CCC(C(=O)NC(c5ccccc5)c5ccccc5)N4C(=O)C(NC(=O)C(C)NC)C3)c2)CCC2CCC(C(=O)NC(c3ccccc3)c3ccccc3)N2C1=O 111

Fill in reported viability, T/C for this entry: CCN1CCN(Cc2ccc(Nc3ncc(F)c(-c4cc(F)c5nc(C)n(C(C)C)c5c4)n3)nc2)CC1 + Cc1c(S(C)(=O)=O)c(-c2cc(F)cc(N3CCN(c4ccc(NS(=O)(=O)c5ccc(NC(CCN6CCC(C(=O)OCCCP(=O)(O)O)CC6)CSc6ccccc6)c(S(=O)(=O)C(F)(F)F)c5)cc4)CC3)c2)c(-c2ccc(Cl)cc2)n1C(C)C 94.7

---

# Test system: 327498-153-R-J2-PDC complex spheroid growth, % test/control
# assay_remarks: Anticancer human tumor 327498-153-R-J2-PDC cell line growth inhibition [Asc];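 note: spheroids exposed to compound for 7 days after 3 days of growth; 100% = DMSO vehicle control wells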
# stated_conditions: second compound 0.316 µM; first compound 0.0316 µM; hits give low values
reported_metric: viability, T/C (%)
// return numeric value only (unit: %, not printed)

Answered cases to consult:
C=C(F)C(=O)N1CCN(c2nc(OCC3CCCN3C)nc3c2CCN(c2cccc4cccc(Cl)c24)C3)CC1CC#N (centres undefined) + CNC(C)C(=O)NC1CN(S(=O)(=O)c2cccc(S(=O)(=O)N3CCC4CCC(C(=O)NC(c5ccccc5)c5ccccc5)N4C(=O)C(NC(=O)C(C)NC)C3)c2)CCC2CCC(C(=O)NC(c3ccccc3)c3ccccc3)N2C1=O | 75.3
O=C(c1ccc(F)c(F)c1Nc1ccc(I)cc1F)N1CC(O)([C@@H]2CCCCN2)C1 + Cc1c(S(C)(=O)=O)c(-c2cc(F)cc(N3CCN(c4ccc(NS(=O)(=O)c5ccc(NC(CCN6CCC(C(=O)OCCCP(=O)(O)O)CC6)CSc6ccccc6)c(S(=O)(=O)C(F)(F)F)c5)cc4)CC3)c2)c(-c2ccc(Cl)cc2)n1C(C)C | 76.9
C#Cc1c(F)ccc2cc(O)cc(-c3ncc4c(N5CC6CCC(C5)N6)nc(OCC56CCCN5CC(F)C6)nc4c3F)c12 (centres undefined) + CNC(C)C(=O)NC1CN(S(=O)(=O)c2cccc(S(=O)(=O)N3CCC4CCC(C(=O)NC(c5ccccc5)c5ccccc5)N4C(=O)C(NC(=O)C(C)NC)C3)c2)CCC2CCC(C(=O)NC(c3ccccc3)c3ccccc3)N2C1=O | 106

--- query ---
Fill in reported viability, T/C for this entry: NC1CCC(NC2CC2c2ccccc2)CC1 (centres undefined) + CNC(C)C(=O)NC1CN(S(=O)(=O)c2cccc(S(=O)(=O)N3CCC4CCC(C(=O)NC(c5ccccc5)c5ccccc5)N4C(=O)C(NC(=O)C(C)NC)C3)c2)CCC2CCC(C(=O)NC(c3ccccc3)c3ccccc3)N2C1=O 96.8

---

# Tested on: 327498-153-R-J2-PDC complex spheroid growth, % test/control
# assay_remarks: Anticancer human tumor 327498-153-R-J2-PDC cell line growth inhibition [Asc];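 note: spheroids exposed to compound for 7 days after 3 days of growth; 100% = DMSO vehicle control wells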
# stated_conditions: second compound 1 µM; first compound 0.1 µM; hits give low values
reported_metric: viability, T/C (%)
// return numeric value only (unit: %, not printed)

NC1CCC(NC2CC2c2ccccc2)CC1 (configuration not stated) + Cc1c(S(C)(=O)=O)c(-c2cc(F)cc(N3CCN(c4ccc(NS(=O)(=O)c5ccc(NC(CCN6CCC(C(=O)OCCCP(=O)(O)O)CC6)CSc6ccccc6)c(S(=O)(=O)C(F)(F)F)c5)cc4)CC3)c2)c(-c2ccc(Cl)cc2)n1C(C)C | 90.6

Recall the reported viability, T/C of O=C(c1ccc(F)c(F)c1Nc1ccc(I)cc1F)N1CC(O)([C@@H]2CCCCN2)C1 + Cc1c(S(C)(=O)=O)c(-c2cc(F)cc(N3CCN(c4ccc(NS(=O)(=O)c5ccc(NC(CCN6CCC(C(=O)OCCCP(=O)(O)O)CC6)CSc6ccccc6)c(S(=O)(=O)C(F)(F)F)c5)cc4)CC3)c2)c(-c2ccc(Cl)cc2)n1C(C)C on 327498-153-R-J2-PDC complex spheroid growth, % test/control and write it down. 58.7

---

# Tested on: 327498-153-R-J2-PDC complex spheroid growth, % test/control
# assay_remarks: Anticancer human tumor 327498-153-R-J2-PDC cell line growth inhibition [Asc];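 note: spheroids exposed to compound for 7 days after 3 days of growth; 100% = DMSO vehicle control wells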
# stated_conditions: second compound 0.03 µM; first compound 10 µM; hits give low values
reported_metric: viability, T/C (%)
// return numeric value only (unit: %, not printed)

C#Cc1c(F)ccc2cc(O)cc(-c3ncc4c(N5CC6CCC(C5)N6)nc(OCC56CCCN5CC(F)C6)nc4c3F)c12 (centres undefined) + CCN1C(C(=O)NC23CCC(C(=O)O)(CC2)CC3)C(c2cccc(Cl)c2F)C2(C(=O)Nc3cc(Cl)ccc32)C12CCCCC2 | 39.4
C=CC(=O)N1CCN(c2nc(=O)n(-c3c(C)ccnc3C(C)C)c3nc(-c4c(O)cccc4F)c(F)cc23)C(C)C1 (centres undefined) + CCN1C(C(=O)NC23CCC(C(=O)O)(CC2)CC3)C(c2cccc(Cl)c2F)C2(C(=O)Nc3cc(Cl)ccc32)C12CCCCC2 | 47.7

Fill in reported viability, T/C for this entry: C=C(F)C(=O)N1CCN(c2nc(OCC3CCCN3C)nc3c2CCN(c2cccc4cccc(Cl)c24)C3)CC1CC#N (centres undefined) + CCN1C(C(=O)NC23CCC(C(=O)O)(CC2)CC3)C(c2cccc(Cl)c2F)C2(C(=O)Nc3cc(Cl)ccc32)C12CCCCC2 0.13

Fill in reported viability, T/C for this entry: O=C(c1cc(Cc2n[nH]c(=O)c3ccccc23)ccc1F)N1CCN(C(=O)C2CC2)CC1 + CCN1C(C(=O)NC23CCC(C(=O)O)(CC2)CC3)C(c2cccc(Cl)c2F)C2(C(=O)Nc3cc(Cl)ccc32)C12CCCCC2 9.54
